target: T1, human Claudin18.2 (CLDN18.2) on the surface of CHO-K1-CLDN18.2 cells (human, UniProt P56856-2 1-261); experiment: cell ELISA on CHO-K1-CLDN18.2 cells
T1 construct: whole, on cells; Membrane protein overexpressed on CHO-K1 cells; also called hCLDN18.2; antigen on the surface of CHO-K1-CLDN18.2 cell
valueType: pEC50
Please keep in mind that pEC50 is minus log10 of the molar concentration; only the number is needed.

pEC50 reading for humanized anti-human CLDN18.2 antibody 8C5.1H1L1 (antibody, human IgG1, kappa, V domains shown) VH: EVQLVESGGGLVKPGGSLRLSCAASGFTFSNSAVSWVRQAPGKRLEWVATITSGVSYTYYLDSVRGRFTISRDNAKNSLYLQMNSLRAEDTAVYYCTRQFKGNALDYWGQGTSVTVSS VL: DIVMTQSPSSLSVSPGERVTMSCKSSQSLLNSGNQKNYLTWYQQKPGQPPKLLIYWASTRESGVPDRFSGSGSGTDFTLTINSFQAEDVAVYYCQNDYFYPLTFGAGTKLELKR : 10.27

pEC50 reading for humanized anti-human CLDN18.2 antibody 8C5.1H2L2 (antibody, human IgG1, kappa, V domains shown) VH: EVQLVESGGGLVKPGGSLRLSCAASGFTFSNSAVSWVRQAPGKGLEWVSTITSGVSYTYYADSVKGRFTISRDNAKNSLYLQMNSLRAEDTAVYYCTRQFKGNALDYWGQGTSVTVSS VL: DIVMTQSPSSLSVSPGERVTISCKSSQSLLNSGNQKNYLTWYQQKPGQPPKLLIYWASTRESGVPDRFSGSGSGTDFTLTISSFQAEDVAVYYCQNDYFYPLTFGAGTKLELKR : 10.03

pEC50 reading for humanized anti-human CLDN18.2 antibody 8C5.1H2L1 (antibody, human IgG1, kappa, V domains shown) VH: EVQLVESGGGLVKPGGSLRLSCAASGFTFSNSAVSWVRQAPGKGLEWVSTITSGVSYTYYADSVKGRFTISRDNAKNSLYLQMNSLRAEDTAVYYCTRQFKGNALDYWGQGTSVTVSS VL: DIVMTQSPSSLSVSPGERVTMSCKSSQSLLNSGNQKNYLTWYQQKPGQPPKLLIYWASTRESGVPDRFSGSGSGTDFTLTINSFQAEDVAVYYCQNDYFYPLTFGAGTKLELKR : 10.04

pEC50 reading for positive control antibody IMAB362 (antibody, human IgG1, kappa, V domains shown, Human-murine chimeric antibody; produced by Akeso Biopharma Inc; also called Claudiximab; zolbetuximab) VH: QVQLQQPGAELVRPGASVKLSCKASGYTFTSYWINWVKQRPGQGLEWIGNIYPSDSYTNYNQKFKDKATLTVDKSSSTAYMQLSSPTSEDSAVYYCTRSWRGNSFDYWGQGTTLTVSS VL: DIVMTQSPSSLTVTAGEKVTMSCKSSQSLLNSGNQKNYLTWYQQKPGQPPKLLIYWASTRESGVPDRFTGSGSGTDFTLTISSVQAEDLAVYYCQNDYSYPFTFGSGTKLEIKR : 9.82
